Entry source: paper PMC10794982

Molecular target: monoacylglycerol lipase (MAGL) (Homo sapiens)
Construct: gene MGLL
Sequence (Q99685 whole entry): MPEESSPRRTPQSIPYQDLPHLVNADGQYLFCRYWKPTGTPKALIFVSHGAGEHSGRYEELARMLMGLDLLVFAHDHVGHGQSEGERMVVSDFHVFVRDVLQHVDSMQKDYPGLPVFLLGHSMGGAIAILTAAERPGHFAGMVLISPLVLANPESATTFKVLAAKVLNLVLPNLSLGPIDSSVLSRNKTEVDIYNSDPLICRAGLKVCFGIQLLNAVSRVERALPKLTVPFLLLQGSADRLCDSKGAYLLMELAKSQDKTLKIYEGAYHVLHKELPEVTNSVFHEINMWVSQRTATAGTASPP
Experiment: modified Cayman MAGL inhibitor kit, 2-AG hydrolysis to arachidonic acid by HPLC-MS/MS
Type: biochemical
property: IC50 (µM)
Provide only the numeric value, understood in µM.

query: Tell me the measured IC50 of C=C1CC/C=C(\C)CC[C@@H]2[C@@H]1CC2(C)C , please.
result: 15.8
